test: protection of differentiated C2C12 cells from simvastatin – single point, plate reader, primary screen (AID 602340); conditions: C2C12 myotubes + simvastatin, ATP luminescence, 48 h; at 7.49 µM; hits give high values; scaled: DMSO 0, geranylgeraniol control 100;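 further: myotubes were challenged with 10 µM simvastatin during compound exposure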
Hit rate of the full screen: of about 330,000 compounds, about 2,600 (0.79%) were called active. The entries come from a sample that favours actives as a whole.
readout.kind: rescue of ATP level (%)
Quick reminder: number only, in %, skip the unit.

Query: Which rescue of ATP level is listed for Cc1nn(C)c(Oc2ccccc2)c1[N+](=O)[O-] ?
Result: 72.4

Query: Bench note: what rescue of ATP level did CC1(C)Cc2cccc(OCC(N)=O)c2O1 show?
Result: 113

Query: Recorded rescue of ATP level for CNC(=O)C[C@H]1CC[C@H]2[C@H](COc3ccc(NC(=O)Nc4ccc(F)cc4)cc3C(=O)N2C)O1 , please?
Result: 17.2

Query: # lookup: rescue of ATP level of Cc1nn(C)c(Oc2ccc(Cl)cc2)c1C=O
Result: 15.3

Query: Requested field: rescue of ATP level. Item: O=C(N[C@@H]1CC[C@H](CCn2cc(-c3ccccn3)nn2)O[C@@H]1CO)c1ccccc1
Result: 0.826

Query: # get_value(readout='rescue of ATP level', item= O=C(C[C@@H]1CC[C@@H]2[C@H](COC[C@H](O)CN2CC2CCOCC2)O1)NCC1CCCCC1 )
Result: 1.6

Query: So what does the record say about rescue of ATP level for COC(=O)c1ccc(CN2C(=O)NC(c3ccccc3)(c3ccccc3)C2=O)o1 ?
Result: 1.69
